system: PC-3; experiment: NCI tumour cell line growth inhibition, 48 h
Calls of active or inactive are those of the source. Rule as the data show it: active = GI50 up to about 1.1 µM and inactive = higher.
MEASURED_PROPERTY: GI50

Examples from the recorded data:
CC(CCCC1SCC2NC(=O)NC21)C(=O)O (stereo unspecified) ... > 100 µM (inactive)
O=C1C2CC=CCC2C(=O)N1n1c(-c2ccccc2)n[nH]c1=O (stereo unspecified) ... > 100 µM (inactive)
CC(C)CCCC(C)[C@H]1CCC2[C@@H]3CCC4Cc5nc6c(nc5C[C@]4(C)C3CC[C@@]21C)CC1CC[C@@H]2C(CC[C@@]3(C)C2CC[C@@H]3O)[C@@]1(C)C6 (stereo partly specified) ... > 100 µM (inactive)
NCCCCNCCCN1CCOC1=O ... > 100 µM (inactive)
c1ccc2nn(C3CCCCO3)nc2c1 (stereo unspecified) ... > 100 µM (inactive)

# input Dear colleague, please send me the reported GI50 for CC(=O)O[C@@]12CO[C@@H]1CC(O)[C@@]1(C)C(=O)[C@H](O)C3=C(C)C(O)C[C@@](O)(C(OC(=O)c4ccccc4)C12)C3(C)C (stereo partly specified) when you can.
# output 0.881 µM (active)

# input Dear colleague, please send me the reported GI50 for COC(=O)C1=C(C(=O)OC)C2(C)CCC(=O)C1O2 (stereo unspecified) when you can.
# output > 10 µM (inactive)

# input Dear colleague, please send me the reported GI50 for `Cc1cc2[nH]c(=NS(=O)(=O)c3cc(C)c(Cl)cc3S)[nH]c2cc1C` when you can.
# output 66.4 µM (inactive)

# input Dear colleague, please send me the reported GI50 for `Cn1c(-c2ccc(/N=N/Nc3ccc(-c4n[nH]c(=S)n4C)cc3)cc2)n[nH]c1=S` when you can.
# output > 100 µM (inactive)

# input Dear colleague, please send me the reported GI50 for `C=C(C)CCN(C(=O)OC(C)(C)C)c1cc(C(C)C)co1` when you can.
# output 22.4 µM (inactive)

# input Dear colleague, please send me the reported GI50 for CC1(C)CCC2(C(=O)OC3OC(CO)C(O)C(O)C3O)CCC3(C)C(=CCC4C5(C)CCC(OC6OC(CO)C(O)C(O)C6O)C(C)(C)C5CCC43C)C2C1 (stereo unspecified) when you can.
# output 13.6 µM (inactive)

# input Dear colleague, please send me the reported GI50 for O=C(OCC(OC(=O)c1ccccc1)C1CC(C(O)C2CCCCC2)C(=O)O1)c1ccccc1 (stereo unspecified) when you can.
# output 45.7 µM (inactive)

# input Dear colleague, please send me the reported GI50 for `CCc1n[nH]c(=O)n1CCCCCCCCCCCCn1c(CC)n[nH]c1=O` when you can.
# output 27.5 µM (inactive)

# input Dear colleague, please send me the reported GI50 for `C[C@]12CC[C@@H]3c4ccc(O)cc4CC[C@H]3[C@@H]1CC[C@@H]2OP(=O)(O)O` when you can.
# output > 100 µM (inactive)

# input Dear colleague, please send me the reported GI50 for `c1cc2c(cc1C(N1CCNCC1)N1CCNCC1)OCO2` when you can.
# output > 100 µM (inactive)
